The molecules listed here are annotated with their TGI.
- Tested on: IGROV1 ovarian
- protocol-summary: NCI tumour cell line growth inhibition, 48 h

molecule	TGI
COC(=O)c1c2c(c(C)[n+]([O-])c1C)C(=O)C=C(NCc1ccc(Cl)cc1)C2=O	1.82 µM
CNC(=O)c1cc(Oc2ccc3nc(NC(=O)Nc4ccc(Cl)c(Cl)c4)sc3c2)ccn1	6.75 µM
CC(=O)OCC(=O)[C@@]1(O)[C@H](C)C[C@H]2[C@@H]3C=C(C)C4=Cc5c(cnn5-c5ccc(F)cc5)C[C@]4(C)[C@H]3[C@@H](O)C[C@@]21C	12.8 µM
COc1ccc2c(c1)c(Cc1c(C)n(C)c3ccc(OC)cc13)c(C)n2C	> 100 µM
Cc1c(CCN=P(c2ccccc2)(c2ccccc2)c2ccccc2)c(=O)n2c([nH]c3ccccc32)c1C#N	> 10 µM
O=C1N=C2c3c(sc4c3CCCC4)N=CN2C1N=Nc1ccc(Cl)cc1 (centres undefined)	> 100 µM
O=C(Cc1ccccc1)N/N=C(/CCN1CCCC1)CC(c1ccccc1)c1c(O)c2ccccc2oc1=O (centres undefined)	> 100 µM
Clc1nc(Cl)c2ncn(C/C=C\Cn3cnc4c(Cl)nc(Cl)nc43)c2n1	2.94 µM
O=C(Nc1ccccc1)N1CCNC1=S	> 100 µM
CC(C)=CC(=O)Cc1nc2ccccc2[nH]c1=O	> 100 µM
O=c1c2cc(Br)ccc2oc2ccc(Br)cc12	> 100 µM
O=C1/C(=C/c2cccc([N+](=O)[O-])c2)CCCc2ccccc21	25.8 µM
Nc1ncc2c(n1)-c1ccccc1OC2NC1CC1 (centres undefined)	> 100 µM
COc1cc(N2CCC(N(C)C)CC2)ccc1Nc1ncc(Cl)c(Nc2ccccc2P(C)(C)=O)n1	> 100 µM
COc1ccc(/C=C2/C(=O)N(C(=O)c3ccc(Cl)cc3)N=C2C)cc1OC	> 100 µM
COc1ccc(C2CC(=O)Nc3c2c(C)nn3-c2nc3ccccc3[nH]2)cc1 (centres undefined)	5.26 µM
CC[C@@]1(O)C(=O)NCc2c1cc1n(c2=O)Cc2cc3cc4c(cc3nc2-1)OCO4	63.4 µM
CN1CC=C(OP(=O)(NCc2ccccc2)N(CCCl)CCCl)CC1 (centres undefined)	> 100 µM
CC(C#N)Nc1ccc(Oc2ccc(C(C)(C)c3ccc(Oc4ccc(NC(C)C#N)cc4)cc3)cc2)cc1 (centres undefined)	> 100 µM

* * *

- Tested on: A549 NSCLC
- protocol-summary: NCI tumour cell line growth inhibition, 48 h
The compounds listed here are annotated with their TGI.

compound	TGI
[N-]=[N+]=Nc1ncc(-c2ccc(C(F)(F)F)cc2)c(NC2CCCCCC2)n1	> 10 µM
Cc1ccc(-c2c(C#N)c(-c3ccc(N(C)C)cc3)c(C#N)c(=O)n2NS(=O)(=O)c2ccccc2)cc1	> 100 µM
COC(=O)c1nc(-c2ccc(Cl)c(Cl)c2)nc2ccccc12	> 100 µM
CC(=O)Nc1c(C)cc(OCC(=O)O)cc1C	> 100 µM
Fc1ccc(C(OCCN2CCC3CCC(C2)N3CCCc2ccccc2)c2ccc(F)cc2)cc1 (stereo not given)	19.4 µM
Cn1c(=O)nc2n(CCO)c(-c3ccccc3)c(-c3ccccc3)nc-2c1=O	> 100 µM
COC(=O)Nc1ccc2ccc3c(NC(=O)OC)ccc4ccc1c2c43 (tested in a mixture with another compound)	> 50 µM
C/C(=N\NC(=S)N(C)C)c1ncc[nH]1	> 100 µM
O=C1N=C2c3c(sc4c3CCCC4)N=CN2C1N=Nc1ccc(Cl)cc1 (stereo not given)	> 100 µM
Cc1cccc(C(C)O)n1 (stereo not given)	> 100 µM

* * *

- System: SW-620 colon
- protocol-summary: NCI tumour cell line growth inhibition, 48 h

compound	TGI
CC(C)=CCC/C(C)=C/Cc1cc(/C=C/c2cc(O)c(CC=C(C)C)c(O)c2)cc(O)c1O	14.5 µM
O=C(/C=C/c1ccc(O)c(O)c1)NC(CO)C(=O)O (configuration not stated)	> 100 µM
CC(C)(C)Cn1c(N)nc2ccc(-c3[nH]c(C(C)(C)C)nc3-c3ccc(F)cc3)nc21	30.1 µM
COc1ccc(NC2=C(Sc3nc(C)cc(C)n3)C(=O)N(Cc3ccccc3)C2=O)cc1Cl	> 160 µM
CNC(=O)c1cc(Oc2ccc3nc(NC(=O)Nc4ccc(Cl)c(Cl)c4)sc3c2)ccn1	> 100 µM
O=C1N=C2c3c(sc4c3CCCC4)N=CN2C1N=Nc1ccc(Cl)cc1 (configuration not stated)	> 100 µM
Cc1cc2c(cn1)C(=O)OCC2	> 100 µM
Cc1cc2c(C(C)C)c(O)c(O)c3coc(/c1=c1/c(C)cc4c(C(C)C)c(=O)c(=O)c5coc1c45)c32	17.4 µM
O=C(Cc1ccccc1)N/N=C(/CCN1CCCC1)CC(c1ccccc1)c1c(O)c2ccccc2oc1=O (configuration not stated)	> 100 µM
COC(=O)/C=C/c1cc(OC)c2c(c1)C(C(=O)OC)C(c1ccc(OC)c(OC)c1)O2 (configuration not stated)	> 100 µM
NC(=S)N/N=C/c1cc(CN2CCOCC2)c(N)cn1	> 100 µM
O=C(O)CCC(=O)Nc1ccc2c(c1)S(=O)(=O)N(CC(=O)O)C2=O	> 100 µM
Cc1ccccc1C(C#N)/C(=N/NC(=O)c1cc2ccccc2cc1O)C(=O)Nc1cccc(Cl)c1 (configuration not stated)	> 100 µM
C=CCOc1cc2c(cc1C(C)c1ccc(OC)cc1)OCO2 (configuration not stated)	> 100 µM
CCN(CC)c1ccc(/C=C/C2=NN(c3cccc(S(=O)(=O)O)c3)C3(C2)C(Cl)C(=O)N3c2nc3ccccc3s2)cc1 (configuration not stated)	53.4 µM
[N-]=[N+]=Nc1ncc(-c2ccc(C(F)(F)F)cc2)c(NC2CCCCCC2)n1	> 10 µM
Nc1nc(-n2cccn2)nc(-n2cccn2)c1Br	> 100 µM
O=[N+]([O-])c1ccc(Cc2nc3ccccc3s2)cc1	> 100 µM
N#Cc1nc(-c2cccc(Br)c2)cc(-c2ccc(Nc3nc(N4CCCCC4)nc(N4CCCCC4)n3)cc2)c1N	3.48 µM
Cc1ccc(NC(=O)c2ccnc(C(F)(F)F)c2)cc1-c1cc(OCCO)nc(N2CCOCC2)c1	63.8 µM
CSc1nc(C)cc(Nc2ccc(O)c(CN3CCCCC3)c2)n1	> 100 µM
O=C(Nc1ccccc1)N1CCNC1=S	> 100 µM
O=c1cc/c(=N\Nc2ccccc2)c(=O)/c1=N/Nc1ccccc1	> 50 µM
CCOC(=O)[C@H]1C[C@@H](C(=O)c2ccccc2)N2N=C(c3ccc(Br)cc3)C=C[C@H]12	> 100 µM
Clc1nc(Cl)c2ncn(C/C=C\Cn3cnc4c(Cl)nc(Cl)nc43)c2n1	2.99 µM
CSc1nc(=S)[nH]c2n[nH]c(C)c12	> 100 µM
CN(C)c1ccc(C(C#N)N2CCCN(C(C#N)c3ccc(N(C)C)cc3)C2c2ccc(N(C)C)cc2)cc1 (configuration not stated)	> 100 µM
CC1C2CC(C(C3C(=O)C4CC3C(C)(C)C4C)C2=O)C1(C)C (configuration not stated)	> 100 µM
Cn1cnc2c(F)c(Nc3ccc(Br)cc3Cl)c(C(=O)NOCCO)cc21	> 100 µM
COc1ccc(NS(=O)CCc2ccccc2)cc1 (configuration not stated)	> 100 µM
CC(C)=CC(=O)Cc1nc2ccccc2[nH]c1=O	> 100 µM
COc1ccc(CSCc2cc(OC)c(OC)c(OC)c2)cc1	> 100 µM
Cc1cccc2c3c(sc12)C(c1ccc(Cl)cc1)C(C#N)=C(/N=C/c1ccc(Cl)cc1)O3 (configuration not stated)	> 100 µM
N[C@@H]1C[C@H](N)c2c(Cl)sc(Cl)c21	> 100 µM
C/C(C=O)=N\Nc1cc(C)c2ccccc2n1	72.8 µM
CCN(CC)CCCCC1CCN(CC(=O)N2c3ccccc3NC(=O)c3ccccc32)CC1	> 100 µM
COc1ccc(C2(CN(C)C)COc3cc(OC)c(OC)cc3C2=O)cc1OC (configuration not stated)	45.8 µM
O=[N+]([O-])c1cccc(-c2nc3sccn3c2-c2ccnc(NCCCNS(=O)(=O)c3ccc(F)cc3)n2)c1	> 100 µM
O=C(Oc1ccccc1)c1cc(O)c(O)c(O)c1	> 100 µM
CC(C#N)Nc1ccc(Oc2ccc(C(C)(C)c3ccc(Oc4ccc(NC(C)C#N)cc4)cc3)cc2)cc1 (configuration not stated)	> 100 µM
Cc1ccc(S(=O)(=O)N(c2ccccc2F)C2CCCCC2O)cc1 (configuration not stated)	> 100 µM
COC(=O)c1c/c(=N\NC(=O)CC(=O)Nc2ccccc2Cl)c2ccccc2o1	> 100 µM

* * *

The molecules listed here are annotated with their TGI.
- Test system: NCI-H460 lung
- protocol-summary: NCI tumour cell line growth inhibition, 48 h
measured-parameter: TGI (µM)

molecule	readout-value
COc1ccc(Cl)cc1N1C(=O)C(Cl)=C(Nc2cccc(O)c2)C1=O	48.6
N#CCCc1nc2ccc(Br)cc2c(=O)n1-c1ccc(O)c([N+](=O)[O-])c1	66.9
O=C1C(NCCc2cc(Br)c(O)c(Br)c2)=CC(=O)c2ncccc21	5.41
CC1=NC(=Cc2ccc(Cl)cc2)C(=O)N1n1c(-c2ccccc2)nc2ccccc2c1=O	60.7
OCCNc1nc(NCCO)nc(Nc2ccc(C3=NN(c4cc(Cl)cc(Cl)c4)C(c4ccc(Cl)cc4)C3)cc2)n1 (stereo not given)	3.66
